Listing: EC50 of selected molecules
- target system: Rat CB1 (Rattus norvegicus, UniProt P20272)
- Construct: expressed in transfected cells; host or cells: HEK
- Sequence (P20272 whole entry): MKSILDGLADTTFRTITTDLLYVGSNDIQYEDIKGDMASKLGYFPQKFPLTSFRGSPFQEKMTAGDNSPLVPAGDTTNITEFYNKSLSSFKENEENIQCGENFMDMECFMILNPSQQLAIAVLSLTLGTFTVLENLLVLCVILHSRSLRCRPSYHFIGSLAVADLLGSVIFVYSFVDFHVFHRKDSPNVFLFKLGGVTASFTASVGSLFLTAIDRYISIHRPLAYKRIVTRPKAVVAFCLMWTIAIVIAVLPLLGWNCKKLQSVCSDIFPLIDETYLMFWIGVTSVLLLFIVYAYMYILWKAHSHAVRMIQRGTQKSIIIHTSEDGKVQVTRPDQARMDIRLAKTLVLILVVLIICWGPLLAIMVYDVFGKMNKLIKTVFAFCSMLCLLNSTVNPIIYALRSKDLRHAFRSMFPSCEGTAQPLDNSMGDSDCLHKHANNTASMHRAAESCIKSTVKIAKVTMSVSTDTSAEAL
- assay notes: rat CB1 cyclase functional assay (HitHunter cAMP)
- Format: cell-based
- measurement setup: Rat CB1 cyclase (EC50, nM), HEK cells, forskolin 37 μM

| molecule | target system | modifier sign | EC50 [nM] |
| --- | --- | --- | --- |
| Cn1c(C(C)(C)C)c/c(=N\C(=O)c2cc(C(F)(F)F)ccc2OCCC(C)(C)O)n1CC1CC1 [Example 51] | Rat CB1 (Rattus norvegicus, UniProt P20272) | > | 27000 |
| Cn1c(C(C)(C)C)c/c(=N\C(=O)c2cc(C(F)(F)F)ccc2OCCS(C)(=O)=O)n1C[C@H]1CCCO1 [Example 56] | Rat CB1 (Rattus norvegicus, UniProt P20272) | = | 2780 |
| CC1CCC(COc2ccc(C(F)(F)F)cc2C(=O)N=c2cc(C(C)(C)C)n(C)n2CC2CCCO2)O1 (single isomer, unassigned) [Example 37] | Rat CB1 (Rattus norvegicus, UniProt P20272) | = | 8590 |
| CCOCCOCCOc1ccc(C(F)(F)F)cc1C(=O)/N=c1\cc(C(C)(C)C)n(C)n1C[C@H]1CCCO1 [Example 47] | Rat CB1 (Rattus norvegicus, UniProt P20272) | > | 27000 |
| CCS(=O)(=O)NCCOc1ccc(C(F)(F)F)cc1C(=O)/N=c1\cc(C(C)(C)C)n(C)n1C[C@H]1CCCO1 [Example 50] | Rat CB1 (Rattus norvegicus, UniProt P20272) | = | 1180 |
| Cn1c(C(C)(C)C)c/c(=N\C(=O)c2cc(C(F)(F)F)ccc2OCc2cccnc2)n1C[C@H]1CCCO1 [Example 43] | Rat CB1 (Rattus norvegicus, UniProt P20272) | > | 27000 |

----------
Listing: log10 Ki of selected molecules
- target system: human CB2 receptors (Homo sapiens, UniProt P34972)
- Construct: expressed in transfected cells; host or cells: HEK293
- Sequence (P34972 whole entry): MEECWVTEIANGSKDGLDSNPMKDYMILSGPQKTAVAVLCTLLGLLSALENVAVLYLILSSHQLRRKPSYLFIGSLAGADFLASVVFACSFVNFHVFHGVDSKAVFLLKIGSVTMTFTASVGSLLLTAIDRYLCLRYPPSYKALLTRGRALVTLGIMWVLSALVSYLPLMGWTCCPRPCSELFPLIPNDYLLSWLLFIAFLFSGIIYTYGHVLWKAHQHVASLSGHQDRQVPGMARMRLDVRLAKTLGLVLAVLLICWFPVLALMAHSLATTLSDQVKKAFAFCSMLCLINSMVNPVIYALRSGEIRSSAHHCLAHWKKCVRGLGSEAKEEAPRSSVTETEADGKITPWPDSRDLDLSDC
- assay notes: human CB2 radioligand binding assay ([3H]CP 55,940 competition)
- measurement setup: human CB2 (Ki, nM), HEK293 membranes, 0.5 nM [3H]CP 55,940
endpoint name: log10 Ki (log10 of the value in nM)

| molecule | endpoint name | experimental result |
| --- | --- | --- |
| Cn1c(C(C)(C)C)c/c(=N\C(=O)c2cc(C(F)(F)F)ccc2OC[C@H]2COC(C)(C)O2)n1C[C@H]1CCCO1 | log10 Ki | 1.57 |
| Cn1c(C(C)(C)C)c/c(=N\C(=O)c2cc(C#N)ccc2OCC(C)(C)O)n1CC1CCCC1 | log10 Ki | 1.67 |
| Cn1c(C(C)(C)C)c/c(=N\C(=O)c2cc(C(F)(F)F)ccc2OCCS(C)(=O)=O)n1C[C@H]1CCCO1 | log10 Ki | 1.82 |
| CCCCn1/c(=N/C(=O)c2cc(C(F)(F)F)ccc2SCC(N)=O)cc(C(C)(C)C)n1C | log10 Ki | 2.13 |
| Cn1c(C(C)(C)C)c/c(=N\C(=O)c2cc(C(F)(F)F)ccc2OC[C@@H]2CCCO2)n1CC1CC1 | log10 Ki | 1.36 |
| Cn1c(C(C)(C)C)c/c(=N\C(=O)c2cc(C(F)(F)F)ccc2OCC[C@H]2COC(C)(C)O2)n1C[C@H]1CCCO1 | log10 Ki | 1.40 |
| Cn1c(C(C)(C)C)c/c(=N\C(=O)c2cc(C(F)(F)F)ccc2OCC(C)(C)O)n1CC1CCCC1 | log10 Ki | 0.82 |
| Cn1c(C(C)(C)C)c/c(=N\C(=O)c2cc(C#N)ccc2OCC(C)(C)O)n1CC1CCC1 | log10 Ki | 1.73 |
| CC(C)(O)COc1ccc(C(F)(F)F)cc1C(=O)/N=c1\sc(C(C)(C)C)nn1CC1(C)COC1 | log10 Ki | 1.50 |
| CCCCn1nc(C(C)(C)C)s/c1=N\C(=O)c1cc(C(F)(F)F)ccc1OC[C@@H]1CCCN1C | log10 Ki | 1.15 |
| Cn1c(C2(C)CC2)c/c(=N\C(=O)c2cc(C(F)(F)F)ccc2OCCC(C)(C)O)n1C[C@H]1CCCO1 | log10 Ki | 1.89 |
| CCC(C)(O)COc1ccc(C(F)(F)F)cc1C(=O)/N=c1\cc(C(C)(C)C)n(C)n1C[C@H]1CCCO1 (stereo partly drawn) | log10 Ki | 0.54 |
| Cn1c(C(C)(C)C)c/c(=N\C(=O)c2cc(C(F)(F)F)ccc2OCC2CCS(=O)(=O)C2)n1C[C@H]1CCCO1 (stereo partly drawn) | log10 Ki | 2.31 |
| Cn1c(C(C)(C)C)c/c(=N\C(=O)c2cc(C(F)(F)F)ccc2OCC(O)CO)n1C[C@H]1CCCO1 (stereo partly drawn) | log10 Ki | 1.30 |
| CN1CCC[C@H]1COc1ccc(C(F)(F)F)cc1C(=O)/N=c1\ccc(C(C)(C)C)cn1C[C@H]1CCCO1 | log10 Ki | 2.47 |
| Cn1c(C(C)(C)C)c/c(=N\C(=O)c2cc(C(F)(F)F)ccc2OCCNS(C)(=O)=O)n1C[C@H]1CCCO1 | log10 Ki | 1.28 |
| Cn1c(C(C)(C)C)c/c(=N\C(=O)c2cc(C(F)(F)F)ccc2OCCN2CCCC2=O)n1C[C@H]1CCCO1 | log10 Ki | 2.29 |
| Cn1c(C(C)(C)C)c/c(=N\C(=O)c2cc(C(F)(F)F)ccc2OCCC(C)(C)O)n1C[C@H]1CCCO1 | log10 Ki | 1.54 |
| Cn1c(C(C)(C)C)c/c(=N\C(=O)c2cc(C(F)(F)F)ccc2OC[C@H]2CCCO2)n1C[C@H]1CCCO1 | log10 Ki | 1.71 |
| CCCCCn1/c(=N/C(=O)c2cc(C#N)ccc2OCC(C)(C)O)cc(C(C)(C)C)n1C | log10 Ki | 1.91 |
| CCCCn1/c(=N/C(=O)c2cc([N+](=O)[O-])ccc2OCC(C)(C)O)cc(C(C)(C)C)n1C | log10 Ki | 0.20 |
| Cn1c(C(C)(C)C)c/c(=N\C(=O)c2cc(C(F)(F)F)ccc2OCCC(C)(C)O)n1CC1CC1 | log10 Ki | 1.90 |
| CC1CCC(COc2ccc(C(F)(F)F)cc2C(=O)N=c2cc(C(C)(C)C)n(C)n2CC2CCCO2)O1 (single isomer, unassigned) [Example 36] | log10 Ki | 1.87 |
| Cn1c(C(C)(C)C)c/c(=N\C(=O)c2cc(C(F)(F)F)ccc2OC[C@H]2OCC[C@H]2F)n1C[C@H]1CCCO1 | log10 Ki | 1.20 |
| Cn1c(C(C)(C)C)c/c(=N\C(=O)c2cc(C(F)(F)F)ccc2OCCC2=CCCC2)n1C[C@H]1CCCO1 | log10 Ki | 0.18 |
| Cn1c(C(C)(C)C)c/c(=N\C(=O)c2cc([N+](=O)[O-])ccc2OCC(C)(C)O)n1C[C@H]1CCCO1 | log10 Ki | 1.11 |
| Cn1c(C(C)(C)C)c/c(=N\C(=O)c2cc(C(F)(F)F)ccc2NC[C@H]2CCCO2)n1C[C@H]1CCCO1 | log10 Ki | 0.67 |
| Cn1c(C(C)(C)C)c/c(=N\C(=O)c2cc(C(F)(F)F)ccc2OC[C@@H]2CCCN2)n1C[C@H]1CCCO1 | log10 Ki | 1.91 |
